molecular target: human 5-HT7 receptor (Homo sapiens (Human)); experiment: Test 1: binding activity for human 5-HT7 receptor ([3H]SB-269970, CHO cell membrane fraction); conditions: [3H]SB-269970, room temperature 60 minutes
Sequence (P34969 whole entry): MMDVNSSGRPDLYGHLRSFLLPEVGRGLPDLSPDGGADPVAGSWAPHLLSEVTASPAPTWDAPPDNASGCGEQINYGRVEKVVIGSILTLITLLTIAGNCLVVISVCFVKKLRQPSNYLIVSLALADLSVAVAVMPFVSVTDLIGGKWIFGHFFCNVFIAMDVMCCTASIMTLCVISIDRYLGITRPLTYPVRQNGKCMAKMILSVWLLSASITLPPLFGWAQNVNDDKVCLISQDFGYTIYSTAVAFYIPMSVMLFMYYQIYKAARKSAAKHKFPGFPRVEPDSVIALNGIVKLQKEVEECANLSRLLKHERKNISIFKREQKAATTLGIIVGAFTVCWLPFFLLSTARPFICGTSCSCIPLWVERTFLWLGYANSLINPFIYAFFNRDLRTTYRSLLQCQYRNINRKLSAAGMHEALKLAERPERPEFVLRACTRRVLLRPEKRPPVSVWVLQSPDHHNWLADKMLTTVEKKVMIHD
Threshold check on Ki: strictly below 3 nM is Fulfilled; on or above 3 nM is Not fulfilled.

CCN(CCN1CCC(c2c[nH]c3cc(F)ccc23)CC1)C(=O)CCO [Example 48]; Fulfilled
CCN(CCN1CCC(c2noc3cc(F)ccc23)CC1)C(=O)C1CCC(O)CC1 (centres unmarked) [Example 9]; Fulfilled
CCN(CCCN1CCC(c2noc3cc(F)ccc23)CC1)S(=O)(=O)C(C)CO (centres unmarked) [Example 56]; Fulfilled

Kindly review the next compound as well.
Exercise: Dear colleague, could you confirm whether Ki of CCN(CCN1CCC(c2noc3cc(F)ccc23)CC1)C(=O)[C@H]1CC[C@@H](O)CC1 [Example 44] falls below 3 nM? Thanks.
Key: Not fulfilled

----------
Biological target: human 5-HT7 receptor (Homo sapiens (Human))
Assay: Test 2: antagonist activity for human 5-HT7 receptor (aequorin luminescence, CHO-K1 cells)
Details: Gα16
Description: Test 2: Evaluation of Antagonist Activity for Human 5-HT2A Receptor and Human 5-HT7 Receptor Aequorin, Gα 16 protein, and each receptor were transiently expressed in CHO-K1 cells (Chinese hamster ovary). […] Each compound dissolved in DMSO was added thereto, and changes in luminescence were measured by FDSS/μCELL drug discovery screening support system (Hamamatsu Photonics K.K.). […]
Items are presented alongside their recorded IC50.
A complete answer gives the number and then names the unit.

A selection of reference data follows.
CCN(CCN1CCC(c2noc3cc(F)ccc23)CC1)C(=O)C(O)COC (stereo not drawn); 72 nM
CCN(CCN1CCC(c2noc3cc(F)ccc23)CC1)C(=O)C1CNCC1O (stereo not drawn); 70 nM

Note: attention shifts to another entry.
Exercise: Can you share its IC50? I mean this molecule: CCN(CCN1CCC(c2noc3cc(F)c(C)cc23)CC1)C(=O)[C@H](C)O
Key: 81 nM

----------
# pIC50 per entry
molecular target: hERG channel (Homo sapiens (Human), UniProt Q12809); experiment: Test 5: inhibitory activity for hERG channel (whole cell patch clamp, hERG-CHO cells); assay type: cell-based; details: hERG-CHO cells, auto patch clamp
Sequence (Q12809 whole entry): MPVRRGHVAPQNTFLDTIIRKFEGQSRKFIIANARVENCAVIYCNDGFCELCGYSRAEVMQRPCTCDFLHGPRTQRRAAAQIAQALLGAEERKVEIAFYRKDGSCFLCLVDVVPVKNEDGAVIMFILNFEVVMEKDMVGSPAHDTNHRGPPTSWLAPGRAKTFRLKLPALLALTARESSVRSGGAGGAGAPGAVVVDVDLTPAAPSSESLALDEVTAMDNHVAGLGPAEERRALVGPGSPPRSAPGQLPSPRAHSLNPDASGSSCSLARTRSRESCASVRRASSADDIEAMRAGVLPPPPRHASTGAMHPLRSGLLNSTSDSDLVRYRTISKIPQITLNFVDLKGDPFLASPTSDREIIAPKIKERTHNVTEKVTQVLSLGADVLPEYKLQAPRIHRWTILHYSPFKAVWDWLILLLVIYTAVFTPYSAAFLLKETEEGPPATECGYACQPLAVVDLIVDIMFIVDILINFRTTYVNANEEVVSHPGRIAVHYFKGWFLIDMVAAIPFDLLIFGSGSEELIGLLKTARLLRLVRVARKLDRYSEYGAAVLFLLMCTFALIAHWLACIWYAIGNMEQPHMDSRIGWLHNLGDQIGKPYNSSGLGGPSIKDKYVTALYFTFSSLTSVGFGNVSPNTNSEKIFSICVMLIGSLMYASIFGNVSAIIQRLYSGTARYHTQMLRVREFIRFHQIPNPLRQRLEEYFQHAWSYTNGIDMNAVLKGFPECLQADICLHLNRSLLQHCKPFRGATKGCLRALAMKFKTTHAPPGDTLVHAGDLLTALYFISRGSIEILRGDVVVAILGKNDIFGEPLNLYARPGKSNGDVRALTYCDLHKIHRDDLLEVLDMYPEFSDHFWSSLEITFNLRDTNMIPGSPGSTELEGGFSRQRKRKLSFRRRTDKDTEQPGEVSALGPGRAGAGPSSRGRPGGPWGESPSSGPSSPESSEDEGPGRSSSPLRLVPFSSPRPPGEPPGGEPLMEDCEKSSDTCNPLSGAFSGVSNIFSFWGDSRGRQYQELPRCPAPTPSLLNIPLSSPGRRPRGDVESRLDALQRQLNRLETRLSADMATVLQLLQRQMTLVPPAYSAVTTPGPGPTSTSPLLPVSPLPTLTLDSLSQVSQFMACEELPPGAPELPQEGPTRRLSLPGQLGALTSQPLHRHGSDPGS
Please treat pIC50 as minus the base-10 logarithm of the molar concentration.

CCN(CCCN1CCC(c2noc3cc(F)ccc23)CC1)S(=O)(=O)CCO [Example 53]; 5.14
CCN(CCN1CCC(c2noc3cc(F)c(C)cc23)CC1)C(=O)[C@H](C)O [Example 13]; 5.54
CCN(CCN1CCC(c2c[nH]c3cc(F)ccc23)CC1)C(=O)CCO [Example 48]; 5.54
CCN(CCN1CCC(n2ncc3cc(F)ccc32)CC1)C(=O)[C@H](C)O [Example 21]; 4.82
CC[C@@H](O)C(=O)N(CC)CCN1CCC(c2noc3cc(F)ccc23)CC1 [Example 29]; 6.05

Exercise: May I ask what pIC50 has been recorded for CCN(CCN1CCC(c2noc3cc(F)ccc23)CC1)C(=O)CC(C)O (centres unmarked) [Example 10] ?
Key: 5.44

Exercise: I have this compound here, CCN(CCN1CCC(c2noc3cc(F)ccc23)CC1)C(=O)C(C)O (centres unmarked) [Example 4] , and I need its recorded pIC50.
Key: 5.15

Where do these numbers come from? They come from patent US11339151B2.
